Tested on: HBV DNA replication in HepAD38 cells
test_details: HBV DNA replication inhibition assay in HepAD38 cells (7 days, PCR of supernatant DNA)
Type: cell-based, hepatitis B virus
test_parameters: HepAD38 cells, 10 μM, trial 1
Below is a list of entries, each paired with its recorded % HBV DNA Inh. at 10 μM, trial 1 value.
property: % HBV DNA Inh. at 10 μM, trial 1 (%)

compound: O=C(NCCN1CCOCC1)c1ccc2nc(-c3ccccc3)c(-c3ccccc3)nc2c1
assayed_target: HBV DNA replication in HepAD38 cells
value_unit: %
value_qualifier: =
measured: 11
--
compound: COc1cc(OC)c2cc(-c3nc4ccccc4[nH]3)c(-c3ccc(C)cc3)nc2c1
assayed_target: HBV DNA replication in HepAD38 cells
value_unit: %
value_qualifier: =
measured: 36
--
compound: CC(=O)N1CCC(NCc2nc(-c3ccc(C)cc3)c(-c3ccccn3)[nH]2)CC1
assayed_target: HBV DNA replication in HepAD38 cells
value_unit: %
value_qualifier: =
measured: 37
--
compound: OC(Cn1cnc(-c2ccccc2)c1-c1cc2ccccc2[nH]1)c1cccnc1 (centres unmarked)
assayed_target: HBV DNA replication in HepAD38 cells
value_unit: %
value_qualifier: <
measured: 1
--
compound: Nc1ccn([C@@H]2CS[C@H](CO)O2)c(=O)n1 [3TC, reference compound]
assayed_target: HBV DNA replication in HepAD38 cells
value_unit: %
value_qualifier: =
measured: 82
